- Assayed Target: farnesyl protein transferase
- Experiment Summary: Inhibition of farnesyl protein transferase (test of WO 95/10514)
- Test Parameters: percent inhibition relative to DMSO vehicle control, IC50 estimated
Readout Kind: IC50 (nM)

CN1Cc2cccnc2C(N2CCN(C(=NCc3ccncc3)NC#N)CC2)c2ccc(Cl)cc21 (stereo not shown) [Example 37]    140

a: NC(=O)N1CCC(CC(=O)N2CCC(=C3c4ccc(Cl)cc4SCc4cccnc43)CC2)CC1 [Example 15B]
b: CN1CCC(CC(=O)N2CCC(=C3c4ccc(Cl)cc4SCc4cccnc43)CC2)CC1 [Example 26]
Lower value for measured IC50? Options: a , b Refer to your chosen entry by its label in the reply.
a
(a: 920 nM, b: 1790 nM)

----------
- Assayed Target: farnesyl protein transferase
- Experiment Summary: Inhibition of farnesyl protein transferase (test of WO 95/10514)
- Test Parameters: percent inhibition relative to DMSO vehicle control, IC50 estimated
pIC50: −log10 of the molar value.
Readout Kind: pIC50

A: N#CNC(=NCc1ccncc1)N1CCC(=C2c3ccc(Cl)cc3SCc3cccnc32)CC1
B: O=C(Cc1cc[n+]([O-])cc1)N1CCC(=C2c3ccc(Cl)cc3OCc3cccnc32)CC1
C: O=C(Cc1ccccc1[N+](=O)[O-])C(=O)N1CCN(C2c3ccc(Cl)cc3SCc3cccnc32)CC1 (stereo not shown)
Reorder the list above by recorded pIC50 in ascending order. Use the labels to give the requested order.
C, B, A

----------
- Assayed Target: farnesyl protein transferase
- Experiment Summary: Inhibition of farnesyl protein transferase (test of WO 95/10514)
- Test Parameters: percent inhibition relative to DMSO vehicle control, IC50 estimated
Readout Kind: IC50 (nM)

O=C(Cc1ccncc1)N1CCC(=C2c3ccc(Cl)cc3SCc3cccnc32)CC1    190
CSC(=NC#N)N1CCC(=C2c3ccc(Cl)cc3SCc3cccnc32)CC1    200
O=C(Cc1ccncc1)N1CCN(C2c3ccc(Cl)cc3[S+]([O-])Cc3cccnc32)CC1 (centres unmarked)    5000
CN1CCC(CC(=O)N2CCN(C3c4ccc(Cl)cc4SCc4cccnc43)CC2)CC1 (centres unmarked)    2100

P: O=C(Cc1ccncc1)N1CCC(=C2c3ccc(Cl)cc3S(=O)(=O)Cc3cccnc32)CC1 [Example 16B]
Q: O=C(Cc1cc[n+]([O-])cc1)N1CCC(=C2c3ccc(Cl)cc3OCc3cc(Br)cnc32)CC1
Hi there, can you help? I need to know whether P or Q has lower measured IC50. Mark your selection by writing its label.
Q

A: N#CN=C(NCc1ccc[n+]([O-])c1)N1CCN(C2c3ccc(Cl)cc3SCc3cccnc32)CC1 (centres unmarked)
B: CC(C)(C)OC(=O)N1CCC(CC(=O)N2CCC(=C3c4ccc(Cl)cc4SCc4cccnc43)CC2)CC1 [Example 11B]
C: O=C(CC1CCNCC1)N1CCN(C2c3ccc(Cl)cc3SCc3cccnc32)CC1 (centres unmarked) [Example 12A]
D: O=C(CC1CCNCC1)N1CCC(=C2c3ccc(Cl)cc3SCc3cccnc32)CC1 [Example 12B]
E: N#CN=C(NCc1ccc[n+]([O-])c1)N1CCC(=C2c3ccc(Cl)cc3SCc3cccnc32)CC1
Sort entries by IC50 from minimum to maximum value. The reply should contain the labels ordered as requested.
E, A, D, C, B

A: O=C(Cc1cccnc1)N1CCC(=C2c3ccc(Cl)cc3OCc3cccnc32)CC1
B: O=C(Cc1ccncc1)N1CCC(=C2c3ccc(Cl)cc3OCc3cccnc32)CC1
C: O=C(Cc1cc[n+]([O-])cc1)N1CCC(=C2c3ccc(Cl)cc3SCc3cccnc32)CC1
Task field, ranking: reported IC50, descending order. Give the labels in the order specified.
A, B, C
(A: 2300 nM, B: 760 nM, C: 520 nM)

----------
- Assayed Target: farnesyl protein transferase
- Experiment Summary: Inhibition of farnesyl protein transferase (test of WO 95/10514)
- Test Parameters: percent inhibition relative to DMSO vehicle control, IC50 estimated
pIC50: −log10 of the molar value.
Readout Kind: pIC50

Record excerpt, results attached:
CSC(=NC#N)N1CCN(C2c3ccc(Cl)cc3N(C)Cc3cccnc32)CC1 (stereo not shown)    5.96
O=C(Cc1cc[n+]([O-])cc1)N1CCN(C2c3ccc(Cl)cc3SCc3cccnc32)CC1 (stereo not shown)    6.10
O=C(Cc1cc[n+]([O-])cc1)N1CCN(C2c3ccc(Cl)cc3OCc3cccnc32)CC1 (stereo not shown)    5.89

I: N#CNC(=NCc1ccncc1)N1CCN(C2c3ccc(Cl)cc3SCc3cccnc32)CC1 (stereo not shown)
II: CSC(=NC#N)N1CCN(C2c3ccc(Cl)cc3SCc3cccnc32)CC1 (stereo not shown)
Endpoint returns whichever of I and II has the numerically higher pIC50. Pick one; state its label.
I

----------
- Assayed Target: farnesyl protein transferase
- Experiment Summary: Inhibition of farnesyl protein transferase (test of WO 95/10514)
- Type: biochemical
- Test Parameters: percent inhibition relative to DMSO vehicle control, IC50 estimated
pIC50: −log10 of the molar value.
Readout Kind: pIC50

Record excerpt, results attached:
N#CN=C(NCc1ccc2c(c1)OCO2)N1CCC(=C2c3ccc(Cl)cc3SCc3cccnc32)CC1 [Example 20B]    < 6.95
O=C(CSc1ccncc1)N1CCN(C2c3ccc(Cl)cc3SCc3cccnc32)CC1 (stereo not drawn) [Example 14A]    6.00
CSC(=NC#N)N1CCC(=C2c3ccc(Cl)cc3OCc3cccnc32)CC1    < 6.85
CN1Cc2cccnc2C(N2CCN(C(=O)CC3CCNCC3)CC2)c2ccc(Cl)cc21 (stereo not drawn)    < 5.89

# input for lookup
# lookup: pIC50 of CC(C)(C)OC(=O)N1CCC(CC(=O)N2CCN(C3c4ccc(Cl)cc4SCc4cccnc43)CC2)CC1 (stereo not drawn) [Example 11A]
< 5.96

----------
- Assayed Target: farnesyl protein transferase
- Experiment Summary: Inhibition of farnesyl protein transferase (test of WO 95/10514)
- Test Parameters: percent inhibition relative to DMSO vehicle control, IC50 estimated
pIC50: −log10 of the molar value.
# reported pIC50; entries follow

For orientation, consider the following solved cases.
N#CN=C(NCc1ccc2c(c1)OCO2)N1CCN(C2c3ccc(Cl)cc3SCc3cccnc32)CC1 (stereo not shown) [Example 20A]    < 6.43
N#CNC(=NCc1ccncc1)N1CCC(=C2c3ccc(Cl)cc3OCc3cccnc32)CC1    < 7.38
O=C(Cc1ccncc1)N1CCN(C2c3ccc(Cl)cc3SCc3cccnc32)CC1 (stereo not shown)    6.49
CC(C)(C)OC(=O)N1CCC(CC(=O)N2CCC(=C3c4ccc(Cl)cc4S(=O)(=O)Cc4cccnc43)CC2)CC1    < 5.92
CN1Cc2cccnc2C(N2CCN(C(=O)CC3CCN(C(=O)OC(C)(C)C)CC3)CC2)c2ccc(Cl)cc21 (stereo not shown)    < 5.44

# ---- query compound ----
Fill blank: measured pIC50 of the compound O=C(Cc1cc[n+]([O-])cc1)N1CCN(C2c3ccc(Cl)cc3S(=O)(=O)Cc3cccnc32)CC1 (stereo not shown) [Example 17A (sulfone)] is ____.
5.47

----------
// reported IC50 per item
- Assayed Target: farnesyl protein transferase
- Experiment Summary: Inhibition of farnesyl protein transferase (test of WO 95/10514)
- Test Parameters: percent inhibition relative to DMSO vehicle control, IC50 estimated
Write the value in nM as a bare number.

CN1Cc2cccnc2C(N2CCN(C(=O)Cc3cc[n+]([O-])cc3)CC2)c2ccc(Cl)cc21 (stereo not shown)    2700
O=C(Cc1ccncc1)N1CCN(C2c3ccc(Cl)cc3S(=O)(=O)Cc3cccnc32)CC1 (stereo not shown) [Example 16A]    1000

Now for a further compound.
Data request, read-out IC50, for CN1Cc2cccnc2C(N2CCN(C(=O)Cc3ccncc3)CC2)c2ccc(Cl)cc21 (stereo not shown)
840

----------
Reported IC50 is given for each of the following molecules.
- Assayed Target: farnesyl protein transferase
- Experiment Summary: Inhibition of farnesyl protein transferase (test of WO 95/10514)
- Test Parameters: percent inhibition relative to DMSO vehicle control, IC50 estimated

Some solved entries appear below for comparison.
CC1(C)c2cccnc2C(=C2CCN(C(=O)Cc3cc[n+]([O-])cc3)CC2)c2ccc(Cl)cc2S1(=O)=O    > 1100 nM
O=C(CC1CCNCC1)N1CCC(=C2c3ccc(Cl)cc3S(=O)(=O)Cc3cccnc32)CC1    > 1200 nM

// IC50 lookup, key: N#CC=C(c1ccc(F)cc1)N1CCC(=C2c3ccc(Cl)cc3SCc3cccnc32)CC1
> 420 nM

Request the reported IC50 associated with O=C(Cc1cc[n+]([O-])cc1)N1CCN(C2c3ccc(Cl)cc3[S+]([O-])Cc3cccnc32)CC1 (stereo not shown) [Example 17A (sulfoxide)]
> 4000 nM
